test-target: Adenylate cyclase (Homo sapiens) (UniProt Q8NFM4+O60503+Q08828+P40145+O60266+O95622+O43306+Q08462+P51828)
assay-details: Effect of compound on cellular c-AMP levels by activation of Adenylate cyclase
Type: functional
quantity: Activity (pM (2*10e6*cells)-1)

# example entries with known answers
O=Cc1ccccc1OCc1ccccc1    1.3
O=Cc1ccc(OCc2ccccc2)cc1    0.26
NC(=O)c1ccccc1OCc1ccccc1    0.29

a: CC(=O)c1ccccc1OCc1ccccc1
b: O=Cc1cccc(OCc2ccccc2)c1
Between a and b , whose recorded Activity (pM (2*10e6*cells)-1) is greater? Reply with the label of the item you choose. b
